IC50 by entry:
ASSAYED TARGET: Aurora A (Homo sapiens (Human))
Sequence (O14965 whole entry): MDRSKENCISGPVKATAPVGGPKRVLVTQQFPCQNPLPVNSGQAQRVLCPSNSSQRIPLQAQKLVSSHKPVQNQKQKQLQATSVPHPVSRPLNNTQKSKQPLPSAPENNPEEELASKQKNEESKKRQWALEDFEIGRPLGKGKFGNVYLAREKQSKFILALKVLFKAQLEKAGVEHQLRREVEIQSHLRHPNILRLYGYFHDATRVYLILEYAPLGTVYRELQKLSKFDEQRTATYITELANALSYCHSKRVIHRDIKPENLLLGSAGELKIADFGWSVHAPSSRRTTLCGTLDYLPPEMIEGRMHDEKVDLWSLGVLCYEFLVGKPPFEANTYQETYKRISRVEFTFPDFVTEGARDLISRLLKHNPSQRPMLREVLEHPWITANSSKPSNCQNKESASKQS
METHOD NOTES: Aurora A enzyme inhibition assay
Assay type: biochemical
Report the value in nM with no unit label.

Worked examples, 2 compounds total:
| COMPOUND | ASSAYED TARGET | MEASURE | ENDPOINT UNIT | REPORTED VALUE |
| --- | --- | --- | --- | --- |
| CCc1c[nH]c2ncc(-c3cccc(N4CCCN(CCN5CCN(c6ccc(C7CCC(=O)NC7=O)cc6)CC5)C4=O)c3)c(Cl)c12 (stereo not drawn) [Example 17] | Aurora A (Homo sapiens (Human)) | IC50 | nM | 16.6 |
| O=C1CCC(N2C(=O)c3cc(F)c(N4CCC(CCN5CCCN(c6cccc(-c7cnc8[nH]cc(C9CC9)c8c7Cl)c6)C5=O)CC4)cc3C2=O)C(=O)N1 (stereo not drawn) [Example 9] | Aurora A (Homo sapiens (Human)) | IC50 | nM | 131 |

# ---- query compound ----
Quick note, IC50 for CCc1c[nH]c2ncc(-c3cccc(N4CCCN(CC5CCN(c6ccc7c(c6)C(=O)N(C6CCC(=O)NC6=O)C7=O)CC5)C4=O)c3)c(Cl)c12 (stereo not drawn) [Example 8] landed at 110

Where do these numbers come from? They come from patent US20250368640A1.
